Reported GI50 by item:
System: OVCAR-8
measurementProtocol: Growth inhibition of human OVCAR8 cells incubated for 48 hrs by sulforhodamine B assay
Type: functional
measurementContext: OVCAR-8, 48 h
The figure you give is taken to be in µM; do not add the unit.

Answered examples (3):
1. COc1cc(OC)cc(-c2ccc(-c3ccc(C(=N)N)c(F)c3)s2)c1 | 1.2
2. N=C(N)c1ccc(-c2ccc(-c3cc(Cl)cc(Cl)c3)s2)cc1 | 2.42
3. COc1ccc(-c2ccc(-c3ccc(C(=N)N)c(F)c3)s2)cc1 | 8.22

If you can, please state the reported GI50 value of COc1ccc(-c2ccc(-c3ccc(C(=N)N)cc3)s2)cc1 .
0.321

Another compound to check: N=C(N)c1ccc(-c2ccc(-c3ccc(F)cc3)s2)cc1
2.11

What about N=C(N)c1ccc(-c2ccc(-c3ccc(Cl)cc3)s2)cc1F ?
0.983

###

System: K562
measurementProtocol: Growth inhibition of human K562 cells incubated for 48 hrs by sulforhodamine B assay
Assay type: functional
measurementContext: K562, 48 h
Listed below: GI50 values for each entry.
Just the number in nM, nothing appended.

1. COc1cc(OC)cc(-c2ccc(-c3ccc(C(=N)N)c(F)c3)s2)c1 | 262
2. N=C(N)c1ccc(-c2ccc(-c3ccc(F)cc3)s2)cc1 | 268
3. N=C(N)c1ccc(-c2ccc(-c3ccc(Cl)cc3)s2)cc1 | 202
4. N=C(N)c1ccc(-c2ccc(-c3ccccc3)s2)cc1F | 3970
5. N=C(N)c1ccc(-c2ccc(-c3cc(Cl)cc(Cl)c3)s2)cc1 | 225
6. COc1cc(OC)cc(-c2ccc(-c3ccc(C(=N)N)cc3)s2)c1 | 418
7. COc1ccc(-c2ccc(-c3ccc(C(=N)N)c(F)c3)s2)cc1 | 2660

Now look at this one.
Reported GI50, compound N=C(N)c1ccc(-c2ccc(-c3ccc(Cl)cc3)s2)cc1F : ____
272

###

Test system: HOP-92
measurementProtocol: Growth inhibition of human HOP92 cells incubated for 48 hrs by sulforhodamine B assay
Assay type: functional
measurementContext: HOP-92, 48 h
Hi! Just check whether GI50 is below 800 nM. Below gives criterion met, equal or above gives criterion not met.

# example entries with known answers
1) COc1ccc(-c2ccc(-c3ccc(C(=N)N)c(F)c3)s2)cc1 | criterion not met
2) N=C(N)c1ccc(-c2ccc(-c3ccccc3)s2)cc1F | criterion not met
3) COc1cc(OC)cc(-c2ccc(-c3ccc(C(=N)N)cc3)s2)c1 | criterion not met
4) N=C(N)c1ccc(-c2ccc(-c3ccc(F)cc3)s2)cc1 | criterion not met
5) COc1ccc(-c2ccc(-c3ccc(C(=N)N)cc3)s2)cc1 | criterion met

In the following, a different molecule is considered.
I'd appreciate it if you could check whether N=C(N)c1ccc(-c2ccc(-c3ccc(Cl)cc3)s2)cc1 has GI50 smaller than 800 nM.
criterion met

###

Test system: MCF7
measurementProtocol: Growth inhibition of human MCF7 cells incubated for 48 hrs by sulforhodamine B assay
Type: functional
measurementContext: MCF7, 48 h
reportedProperty: GI50 (nM)
Reply numerically in nM, unit not repeated.

1) N=C(N)c1ccc(-c2ccc(-c3ccc(Cl)cc3)s2)cc1 | 171
2) N=C(N)c1ccc(-c2ccc(-c3ccccc3)s2)cc1F | 3170
3) COc1ccc(-c2ccc(-c3ccc(C(=N)N)cc3)s2)cc1 | 175
4) N=C(N)c1ccc(-c2ccc(-c3ccc(Cl)cc3)s2)cc1F | 168
5) N=C(N)c1ccc(-c2ccc(-c3ccc(F)cc3)s2)cc1 | 323

Using the record for COc1cc(OC)cc(-c2ccc(-c3ccc(C(=N)N)c(F)c3)s2)c1 , report its GI50.
194

Another compound to check: N=C(N)c1ccc(-c2ccc(-c3cc(Cl)cc(Cl)c3)s2)cc1
193

Please give the result for COc1cc(OC)cc(-c2ccc(-c3ccc(C(=N)N)cc3)s2)c1 too.
1220

Same again, this time with COc1ccc(-c2ccc(-c3ccc(C(=N)N)c(F)c3)s2)cc1
2080

###

Item-by-item account of GI50
System: NCI-H226
measurementProtocol: Growth inhibition of human NCI-H226 cells incubated for 48 hrs by sulforhodamine B assay
Format: functional
measurementContext: NCI-H226, 48 h
Quick reminder: number only, in nM, skip the unit.

Known GI50 results, listed for orientation:
1. N=C(N)c1ccc(-c2ccc(-c3ccccc3)s2)cc1F | 12900
2. COc1cc(OC)cc(-c2ccc(-c3ccc(C(=N)N)c(F)c3)s2)c1 | 1730

Recorded GI50 of N=C(N)c1ccc(-c2ccc(-c3ccc(Cl)cc3)s2)cc1F , please.
2030

###

System: HOP-62
measurementProtocol: Growth inhibition of human HOP62 cells incubated for 48 hrs by sulforhodamine B assay
Assay type: functional
measurementContext: HOP-62, 48 h
Measured GI50, listed per entry for reference.
# number only, unit nM dropped from output

# count of solved cases: 5
1. N=C(N)c1ccc(-c2ccc(-c3ccccc3)s2)cc1F | 10500
2. N=C(N)c1ccc(-c2ccc(-c3cc(Cl)cc(Cl)c3)s2)cc1 | 1690
3. COc1cc(OC)cc(-c2ccc(-c3ccc(C(=N)N)cc3)s2)c1 | 1900
4. N=C(N)c1ccc(-c2ccc(-c3ccc(Cl)cc3)s2)cc1F | 1480
5. COc1ccc(-c2ccc(-c3ccc(C(=N)N)c(F)c3)s2)cc1 | 10400

Give its GI50 value. Item: N=C(N)c1ccc(-c2ccc(-c3ccc(F)cc3)s2)cc1
1580

Same question for COc1cc(OC)cc(-c2ccc(-c3ccc(C(=N)N)c(F)c3)s2)c1 please.
1610

###

measurementProtocol: Safety index, ratio of compound IC50 to 5-fluorouracil IC50 for human WI38 cells
Type: ADME, cell-based
measurementContext: WI-38 cells, read-out: Ratio IC50
reportedProperty: selectivity ratio

For N=C(N)c1ccc(-c2ccc(-c3ccc(Cl)cc3)s2)cc1F , what is its reported selectivity ratio?
6

###

System: CCRF-CEM
measurementProtocol: Growth inhibition of human CCRF-CEM cells incubated for 48 hrs by sulforhodamine B assay
Format: functional
We begin with a simple list: items and their reported GI50.
Hi! Could you send only the number? It should be in nM, unit omitted.

Use these answered entries as a reference point.
1. N=C(N)c1ccc(-c2ccc(-c3ccc(Cl)cc3)s2)cc1F | 194
2. COc1cc(OC)cc(-c2ccc(-c3ccc(C(=N)N)c(F)c3)s2)c1 | 306

GET /values?readout=GI50&item= N=C(N)c1ccc(-c2ccc(-c3ccc(Cl)cc3)s2)cc1
200

###

# GI50 listing for each entry below
Tested on: SW-620
measurementProtocol: Growth inhibition of human SW620 cells incubated for 48 hrs by sulforhodamine B assay
Assay type: functional
measurementContext: SW-620, 48 h
Kindly answer with a numeric value in nM, unit omitted.

Record excerpt, results attached:
1) COc1cc(OC)cc(-c2ccc(-c3ccc(C(=N)N)c(F)c3)s2)c1 | 212
2) N=C(N)c1ccc(-c2ccc(-c3ccc(Cl)cc3)s2)cc1 | 177

GI50 for N=C(N)c1ccc(-c2ccc(-c3ccccc3)s2)cc1F ?
4050

###

System: PC-3
measurementProtocol: Growth inhibition of human PC3 cells incubated for 48 hrs by sulforhodamine B assay
Format: functional
measurementContext: PC-3, 48 h
// returns class 0 unless GI50 is strictly below 2000 nM, in which case class 1

A selection of reference data follows.
1. COc1cc(OC)cc(-c2ccc(-c3ccc(C(=N)N)c(F)c3)s2)c1 | class 1
2. COc1cc(OC)cc(-c2ccc(-c3ccc(C(=N)N)cc3)s2)c1 | class 1
3. N=C(N)c1ccc(-c2ccc(-c3ccccc3)s2)cc1F | class 0
4. COc1ccc(-c2ccc(-c3ccc(C(=N)N)c(F)c3)s2)cc1 | class 0
5. N=C(N)c1ccc(-c2ccc(-c3ccc(Cl)cc3)s2)cc1F | class 1

Does the reported GI50 of the following compound sit strictly below 2000 nM? N=C(N)c1ccc(-c2ccc(-c3cc(Cl)cc(Cl)c3)s2)cc1
class 1

Entry to check: N=C(N)c1ccc(-c2ccc(-c3ccc(F)cc3)s2)cc1
class 1

Entry to check: N=C(N)c1ccc(-c2ccc(-c3ccc(Cl)cc3)s2)cc1
class 1

Same again, this time with COc1ccc(-c2ccc(-c3ccc(C(=N)N)cc3)s2)cc1
class 1

###

measurementProtocol: Safety index, ratio of compound IC50 to 5-fluorouracil IC50 for human WISH cells
Type: ADME, cell-based
measurementContext: read-out: Ratio IC50
reportedProperty: selectivity ratio
Number only, please.

Return reported selectivity ratio; argument: N=C(N)c1ccc(-c2ccc(-c3ccc(Cl)cc3)s2)cc1F
9

###

Attribute: pIC50
measurementProtocol: Inhibition of PTK in human MCF7 cells preincubated for 2 hrs followed by poly-Glu-Tyr substrate addition by ELISA
Assay type: cell-based
# pIC50: negative log10 of molar concentration; output just the value

Check out these entries, answers already filled in.
1. N=C(N)c1ccc(-c2ccc(-c3ccc(Cl)cc3)s2)cc1F | 6.97
2. COc1ccc(-c2ccc(-c3ccc(C(=N)N)c(F)c3)s2)cc1 | 6.04
3. N=C(N)c1ccc(-c2ccc(-c3ccc(Cl)cc3)s2)cc1 | 7.89

Below: the item to evaluate.
Any idea what its pIC50 is? The compound is COc1cc(OC)cc(-c2ccc(-c3ccc(C(=N)N)c(F)c3)s2)c1
6.06
